Assign PXR Max Induction (% of rifampicin) to each entry below.
# assayedTarget: human PXR (Homo sapiens (Human), UniProt O75469)
# Sequence (O75469 whole entry): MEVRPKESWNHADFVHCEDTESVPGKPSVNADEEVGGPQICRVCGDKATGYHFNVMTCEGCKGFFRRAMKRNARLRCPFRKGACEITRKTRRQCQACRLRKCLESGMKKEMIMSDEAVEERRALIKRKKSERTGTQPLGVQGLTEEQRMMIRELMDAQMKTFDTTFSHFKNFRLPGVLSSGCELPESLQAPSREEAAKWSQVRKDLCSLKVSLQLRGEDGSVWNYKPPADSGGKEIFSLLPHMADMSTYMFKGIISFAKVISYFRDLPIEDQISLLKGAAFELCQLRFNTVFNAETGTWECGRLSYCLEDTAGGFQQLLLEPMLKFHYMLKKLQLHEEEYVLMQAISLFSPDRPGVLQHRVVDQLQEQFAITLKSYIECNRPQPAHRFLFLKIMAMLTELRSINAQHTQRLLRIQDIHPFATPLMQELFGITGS
# assayRemarks: PXR assay (PXR mediated CYP3A4 induction, DPX-2 cell line)
# Format: cell-based
# testSettings: DPX-2 cells, 48 hours, 0.1 to 60 μM

Before answering, review these 3 worked examples.
Cc1ccc(S(=O)(=O)NC(=O)c2ccc(-n3ccc(OCC4(C(F)(F)F)CC4)n3)nc2N2C[C@@H](C)CC2(C)C)cc1 [Compound 24] | 9 % of rifampicin
Cc1ccccc1S(=O)(=O)NC(=O)c1ccc(-n2ccc(OCC3(C(F)(F)F)CCC3)n2)nc1N1C[C@@H](C)CC1(C)C [Comp. 58] | 4 % of rifampicin
C[C@@H]1CN(c2nc(-n3ccc(OCC4(C(F)F)CC4)n3)ccc2C(=O)NS(=O)(=O)c2ccccc2)C(C)(C)C1 [Comp. 55] | 22 % of rifampicin

List PXR Max Induction (% of rifampicin) for every entry below, keeping the order given.
1. C[C@@H]1CN(c2cc(-n3ccc(OCCC4(C(F)(F)F)CC4)n3)ncc2C(=O)NS(=O)(=O)c2ccccc2)C(C)(C)C1 [Comp. 44]
2. C[C@@H]1CN(c2nc(-n3ccc(OCC4C(C)(C)C4(C)C)n3)ccc2C(=O)NS(=O)(=O)c2ccc(O)cc2)C(C)(C)C1 [Comp. 33]
3. C[C@@H]1CN(c2nc(-n3ccc(OCC4CCC4)n3)ccc2C(=O)NS(=O)(=O)c2cccnc2N)C(C)(C)C1 [Comp. E, reference compound]

1: 18 % of rifampicin; 2: 0 % of rifampicin; 3: 10 % of rifampicin

List PXR Max Induction (% of rifampicin) for every entry below, keeping the order given.
1. C[C@@H]1CN(c2nc(-n3ccc(O[C@H]4C[C@H]5CC[C@@H]4C5)n3)ccc2C(=O)NS(=O)(=O)c2ccccc2)C(C)(C)C1 [Comp. 39]
2. C[C@@H]1CN(c2nc(-n3ccc(OCC4(C(F)(F)F)CC4)n3)ccc2C(=O)NS(=O)(=O)c2ccccc2F)C(C)(C)C1 [Comp. 50]
3. C[C@@H]1CN(c2nc(-n3ccc(OCCC4(C(F)(F)F)CC4)n3)ccc2C(=O)NS(=O)(=O)c2ccc(O)cc2)C(C)(C)C1 [Compound 31]
4. C[C@@H]1CN(c2nc(-n3ccc(OCCC4(C(F)(F)F)CC4)n3)ccc2C(=O)NS(=O)(=O)c2ccccc2Cl)C(C)(C)C1 [Comp. 43]
5. C[C@@H]1CN(c2nc(-n3ccc(COCC4(C(F)(F)F)CC4)n3)ccc2C(=O)NS(=O)(=O)c2ccccc2)C(C)(C)C1 [Comp. 37]
6. Cc1cccc(S(=O)(=O)NC(=O)c2ccc(-n3ccc(OCC4(C(F)(F)F)CC4)n3)nc2N2C[C@@H](C)CC2(C)C)c1 [Comp. 28]
7. C[C@@H]1CN(c2nc(-n3ccc(OCC4C[C@@H]5CC[C@@H]4C5)n3)ccc2C(=O)NS(=O)(=O)c2ccccc2)C(C)(C)C1 (stereo partly shown) [Comp. 40]

["13 % of rifampicin", "32 % of rifampicin", "7 % of rifampicin", "12 % of rifampicin", "8 % of rifampicin", "17 % of rifampicin", "2 % of rifampicin"]
